system: NCI-H358 cells (Kras G12C mutation); experiment: Cell proliferation inhibition experiment, 3D model, CellTiter-Glo (NCI-H358); type: cell-based, human; details: Homo sapiens, NCI-H358, 120 h, NCI-H358, 3D sphere plate, 5 days, 2% FBS
pIC50: −log10 of the molar value.
readout.kind: pIC50

Worked set:
compound	measured.number
C=CC(=O)N1CCN2c3nc(=O)n(-c4c(C5CC5)ncnc4C4CC4)c4nc(-c5c(O)cccc5F)c(Cl)c(c34)OC[C@H]2C1	8.70
C=CC(=O)N1CCN2c3nc(=O)n(C4CC4)c4cc(-c5c(C)ccc6[nH]ncc56)cc(c34)OCCC2C1 (stereo not drawn)	6.55
C=CC(=O)N1CCN2c3nc(=O)n(-c4c(C)ccnc4C(C)C)c4nc(-c5c(O)ccc(F)c5F)c(Cl)c(c34)OC[C@@H]2C1	8.40

[I] C=CC(=O)N1CCN2c3nc(=O)n(-c4c(Cl)cncc4C(C)C)c4nc(-c5ccccc5F)c(Cl)c(c34)OC[C@H]2C1
[II] C=CC(=O)N1CCN2c3nc(=O)n(-c4c(C)ccnc4C(C)C)c4nc(-c5c(C)ccc6[nH]ncc56)c(Cl)c(c34)OC[C@H]2C1
[III] C=CC(=O)N1CCN2c3nc(=O)n(-c4c(C)ccnc4C(C)C)c4nc(-c5cc(F)cc(F)c5O)c(Cl)c(c34)OC[C@@H]2C1
// query # rank_down: sort by pIC50, max first API: response body holds the labels in the requested order.
// result I, II, III
(I: 8.10, II: 7.89, III: 7.18)

[I] C=CC(=O)N1CCN2c3nc(=O)n(-c4c(C)ccnc4C(C)C)c4nc(-c5cc(F)ccc5O)c(Cl)c(c34)OC[C@@H]2C1
[II] C=CC(=O)N1CCN2c3nc(=O)n(-c4ccccc4C(C)C)c4cc(-c5c(C)ccc6[nH]ncc56)c(Cl)c(c34)OC[C@@H]2C1
// query Record comparison, field pIC50: mark the lower of I and II . State your choice using its label.
// result I
(I: 8.05, II: 8.30)

[a] C=CC(=O)N1CCN2c3nc(=O)n(-c4c(C)ncnc4C4CC4)c4nc(-c5c(O)cccc5F)c(F)c(c34)OC[C@H]2C1
[b] C=CC(=O)N1CCN2c3nc(=O)n(-c4c(OC)ncnc4C(C)C)c4nc(-c5c(O)cccc5F)c(F)c(c34)OC[C@H]2C1 (single isomer, unassigned) [Compound Z111-1]
// query Record comparison, field pIC50: mark the lower of a and b . State your choice using its label.
// result b
(b: 7.47, a: 8.05)

[a] C=CC(=O)N1CCN2c3nc(=O)n(-c4c(C)ccnc4C(C)C)c4nc(-c5ccccc5OC(F)(F)F)c(Cl)c(c34)OC[C@@H]2C1
[b] C=CC(=O)N1CCN2c3nc(=O)n(-c4c(C)ncnc4C(C)C)c4nc(-c5c(O)cccc5F)c(Cl)c(c34)OC[C@H]2C1
// query Record comparison, field pIC50: mark the lower of a and b . State your choice using its label.
// result a
(a: 8.15, b: 8.40)

* * *

system: NCI-H358 cells (Kras G12C mutation); experiment: Cell proliferation inhibition experiment, 3D model, CellTiter-Glo (NCI-H358); assay type: cell-based, human; settings: Homo sapiens, NCI-H358, 120 h, NCI-H358, 3D sphere plate, 5 days, 2% FBS
readout.kind: IC50 (nM)

Worked set:
                                   compound  readout_kind  unit_info  measured_number
0  C=CC(=O)N1CCN2c3nc(=O)n(-c4c(OC)ncnc4C(C)C)c4nc(-c5c(O)cccc5F)c(F)c(c34)OC[C@H]2C1 [Compound Z111]          IC50         nM                4
1  C=CC(=O)N1CCN2c3nc(=O)n(-c4c(C)nc(OC)nc4C(C)C)c4nc(-c5ccccc5F)c(Cl)c(c34)OC[C@H]2C1          IC50         nM                3

[I] C=CC(=O)N1CCN2c3nc(=O)n(-c4c(C)ccnc4C(C)C)c4nc(-c5c(F)cccc5F)c(Cl)c(c34)OC[C@@H]2C1
[II] C=CC(=O)N1CCN2c3nc(=O)n(-c4c(C)ccnc4C(C)C)c4nc(-c5c(O)cccc5F)c(C)c(c34)OC[C@H]2C1
[III] C=CC(=O)N1CCN2c3nc(=O)n(-c4c(C)ccnc4C(C)C)c4cc(-c5ncccc5F)c(Cl)c(c34)OC[C@@H]2C1
[IV] C=CC(=O)N1CCN2c3nc(=O)n(-c4ccccc4C(C)C)c4cc(-c5c(C)ccc6[nH]ncc56)c(Cl)c(c34)OCC2C1 (stereo not drawn)
// query rank_up(items): orders items by reported IC50 in ascending numerical order. API: response body holds the labels in the requested order.
// result IV, I, II, III
(IV: 2 nM, I: 3 nM, II: 5 nM, III: 164 nM)
